Can you tell me Ki for the items I'm about to list?
- systemTested: ATP-citrate synthase (Homo sapiens, UniProt P53396)
- Sequence (P53396 whole entry): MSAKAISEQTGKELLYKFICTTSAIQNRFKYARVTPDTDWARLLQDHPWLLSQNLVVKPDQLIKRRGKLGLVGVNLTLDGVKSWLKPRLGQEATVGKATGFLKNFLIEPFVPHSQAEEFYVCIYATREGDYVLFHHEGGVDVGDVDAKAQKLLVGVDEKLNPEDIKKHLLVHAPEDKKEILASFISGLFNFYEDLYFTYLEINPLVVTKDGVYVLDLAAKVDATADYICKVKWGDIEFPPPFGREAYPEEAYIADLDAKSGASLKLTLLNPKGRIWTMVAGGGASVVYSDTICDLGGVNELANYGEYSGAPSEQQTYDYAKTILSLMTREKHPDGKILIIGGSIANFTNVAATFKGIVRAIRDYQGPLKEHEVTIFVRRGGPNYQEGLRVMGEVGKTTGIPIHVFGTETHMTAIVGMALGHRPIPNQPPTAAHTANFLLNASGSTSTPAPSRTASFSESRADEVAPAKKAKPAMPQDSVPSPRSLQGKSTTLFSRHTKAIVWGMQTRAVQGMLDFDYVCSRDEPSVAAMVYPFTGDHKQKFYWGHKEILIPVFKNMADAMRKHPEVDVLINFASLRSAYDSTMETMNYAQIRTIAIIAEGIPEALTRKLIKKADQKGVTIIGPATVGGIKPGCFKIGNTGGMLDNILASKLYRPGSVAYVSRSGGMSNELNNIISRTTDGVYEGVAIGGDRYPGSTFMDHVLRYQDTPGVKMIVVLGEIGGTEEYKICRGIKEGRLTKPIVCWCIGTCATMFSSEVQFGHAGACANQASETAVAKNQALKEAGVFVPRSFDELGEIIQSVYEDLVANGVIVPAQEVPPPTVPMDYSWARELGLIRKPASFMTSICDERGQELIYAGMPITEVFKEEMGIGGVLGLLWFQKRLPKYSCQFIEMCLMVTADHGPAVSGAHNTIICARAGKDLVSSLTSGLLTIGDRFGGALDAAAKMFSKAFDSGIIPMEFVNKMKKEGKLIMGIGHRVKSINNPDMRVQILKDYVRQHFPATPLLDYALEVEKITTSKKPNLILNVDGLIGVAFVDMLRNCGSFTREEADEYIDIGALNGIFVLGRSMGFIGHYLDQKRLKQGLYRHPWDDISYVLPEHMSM
Give your result in µM as a bare value.

Give ATP-citrate synthase (Homo sapiens, UniProt P53396) Ki for the following molecule: O=C(O)C[C@](O)(C[C@H](O)CCCCCCc1ccc(Cl)cc1Cl)C(=O)O 1

Give ATP-citrate synthase (Homo sapiens, UniProt P53396) Ki for the following molecule: O=C(O)CC(O)(CCCCCCCCc1ccc(Cl)cc1Cl)C(=O)O (centres undefined) 1.2

Give ATP-citrate synthase (Homo sapiens, UniProt P53396) Ki for the following molecule: COC(=O)c1cc(Cl)c(O)c(S(=O)(=O)Nc2cc(-c3ccccc3)c(F)cc2F)c1 0.007

Give ATP-citrate synthase (Homo sapiens, UniProt P53396) Ki for the following molecule: C[C@@H]1C[C@H]2O[C@@H]2/C=C\C=C\C(=O)Cc2c(Cl)c(O)cc(O)c2C(=O)O1 13

* * *

- assayNotes: in vitro
- setupConditions: human, liver microsomes
Can you tell me half-life for the items I'm about to list?
Give your result in h as a bare value.

Look up and report measured half-life for this entry: COC(=O)c1cc(Cl)c(O)c(S(=O)(=O)Nc2cc(-c3ccccc3)c(F)cc2F)c1 0.056

Look up and report measured half-life for this entry: O=C1NCc2ccccc2-c2cc(c(F)cc2F)NS(=O)(=O)c2cc1cc(Cl)c2O 8.85

Values from ChEMBL document CHEMBL5346956
